# tgt: recombinant human FLAP protein (Homo sapiens (Human), UniProt P20292)
# Sequence (P20292 whole entry): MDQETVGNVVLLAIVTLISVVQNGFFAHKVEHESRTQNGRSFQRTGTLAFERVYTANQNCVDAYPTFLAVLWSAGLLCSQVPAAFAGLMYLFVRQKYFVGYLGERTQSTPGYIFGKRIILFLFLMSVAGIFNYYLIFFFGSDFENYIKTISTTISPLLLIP
# assay.text: FLAP binding assay (Scintillation Proximity Assay, displacement of [125I]L-691,831)
# condition.summary: read-out: FLAP SPA IC50
pIC50: −log10 of the molar value.
attribute.measured: pIC50

Solved cases (4 shown):
- Nc1ncc(-c2ccc(C3(c4noc(-c5ccc(S(N)(=O)=O)cc5)n4)CCC3)cn2)cn1: 8.06
- COC(=O)[C@H]1CN(c2ccc(-c3nc(C4(c5ccc(-c6cnc(N)nc6)nc5)CCC4)no3)cn2)CCN1: 8.48
- CCOC(=O)CNc1ccc(-c2nc(C3(c4ccc(-c5cnc(N)nc5)nc4)CCC3)no2)cn1: 8.41
- Cc1n[nH]cc1-c1nc(C2(c3ccc(-c4cnc(N)nc4)nc3)CCC2)no1: 8.33

[A] CCn1cc(-c2nc(C3(c4ccc(-c5cnc(N)nc5)nc4)CCC3)no2)cn1
[B] Nc1ncc(-c2ccc(C3(c4noc(-c5ccc(N6CCS(=O)(=O)CC6)nc5)n4)CCC3)cn2)cn1
[C] CC(C)(C(=O)O)n1cc(-c2nc(C3(c4ccc(-c5cnc(N)nc5)nc4)CCC3)no2)cn1
[D] Cc1cc(-c2nc(C3(c4ccc(-c5cnc(N)nc5)cn4)CCC3)no2)[nH]n1
Put these in order: smallest pIC50 first, largest last. List the labels according to the requested ordering. C, D, A, B
